Values from Sander's compilation of Henry's law constants

- procedure-details: Henry solubility constant Hcp at 298.15 K (mol/(m3 Pa))
- test-context: reference: Kwan (2001)
Returns one of T or F; T when Henry solubility constant Hcp is >= 1.

*Q* Reported Henry solubility constant Hcp reaches at least 1 for O=C(O)C(F)(F)C(F)(F)C(F)(F)C(F)(F)C(F)(F)C(F)(F)F ?
*A* T

*Q* Reported Henry solubility constant Hcp reaches at least 1 for O=C(O)C(F)(F)C(F)(F)C(F)(F)F ?
*A* F

---
*Q* Reported Henry solubility constant Hcp reaches at least 1 for O=C(O)C(F)(F)C(F)(F)C(F)(F)C(F)(F)C(F)(F)F ?
*A* T

*Q* Reported Henry solubility constant Hcp reaches at least 1 for O=C(O)C(F)(F)C(F)(F)C(F)(F)C(F)(F)C(F)(F)C(F)(F)C(F)(F)F ?
*A* T

*Q* Reported Henry solubility constant Hcp reaches at least 1 for O=C(O)C(F)(F)C(F)(F)C(F)(F)C(F)(F)F ?
*A* F

*Q* Reported Henry solubility constant Hcp reaches at least 1 for O=C(O)C(F)(F)C(F)(F)F ?
*A* T

* * *

- procedure-details: Henry solubility constant Hcp at 298.15 K (mol/(m3 Pa))
- test-context: reference: Schuhfried et al. (2015)
Returns one of rule met or rule not met; rule met when Henry solubility constant Hcp is >= 0.0003.

Please review the following examples before continuing.
*Q* Reported Henry solubility constant Hcp reaches at least 0.0003 for CC1=CC[C@H](C(C)C)C=C1 [(R)-(−)-α-phellandrene] ?
*A* rule met

*Q* Reported Henry solubility constant Hcp reaches at least 0.0003 for C=C(C)[C@H]1CC=C(C)CC1 [(R)-1-methyl-4-(1-methylethenyl)-cyclohexene] ?
*A* rule met

*Q* Reported Henry solubility constant Hcp reaches at least 0.0003 for C=C(C)[C@@H]1CC=C(C)CC1 [(S)-1-methyl-4-(1-methylethenyl)-cyclohexene] ?
*A* rule met

*Q* Reported Henry solubility constant Hcp reaches at least 0.0003 for C=C/C(C)=C/C/C=C(\C)CCC=C(C)C ?
*A* rule not met

*Q* Reported Henry solubility constant Hcp reaches at least 0.0003 for C=CC(=C)CCC=C(C)C ?
*A* rule met

Consider the additional molecule presented here.
*Q* Reported Henry solubility constant Hcp reaches at least 0.0003 for CC1=CC=C(C(C)C)CC1 ?
*A* rule met

* * *

- procedure-details: Henry solubility constant Hcp at 293 K (mol/(m3 Pa))
- test-context: reference: Yurteri et al. (1987)
Consider the following molecules and their measured Henry solubility constant Hcp at 293 K readings.
// print number alone

// solved cases for Henry solubility constant Hcp at 293 K follow
Record Cc1ccc(C)c(C)c1 [1,2,4-trimethylbenzene] , field Henry solubility constant Hcp at 293 K: 0.0021

Record Cc1ccccc1C [1,2-dimethylbenzene] , field Henry solubility constant Hcp at 293 K: 0.0023

Record ClC=C(Cl)Cl [trichloroethene] , field Henry solubility constant Hcp at 293 K: 0.00094

Record C=C(Cl)Cl [1,1-dichloroethene] , field Henry solubility constant Hcp at 293 K: 0.00013

Record Clc1ccccc1 [chlorobenzene] , field Henry solubility constant Hcp at 293 K: 0.0031

Record c1ccc2ccccc2c1 [naphthalene] , field Henry solubility constant Hcp at 293 K: 0.027

Record c1ccccc1 [benzene] , field Henry solubility constant Hcp at 293 K: 0.0013

Record Clc1ccc(Cl)cc1 [1,4-dichlorobenzene] , field Henry solubility constant Hcp at 293 K: 0.0052

Record ClC(Cl)(Cl)Cl [tetrachloromethane] , field Henry solubility constant Hcp at 293 K: 0.00043

Record CC(Cl)(Cl)Cl [1,1,1-trichloroethane] , field Henry solubility constant Hcp at 293 K: 0.00063

---
Record ClCCl [dichloromethane] , field Henry solubility constant Hcp at 293 K: 0.0052

Record Cc1ccccc1 [methylbenzene] , field Henry solubility constant Hcp at 293 K: 0.0017

Record ClC(Cl)=C(Cl)Cl [tetrachloroethene] , field Henry solubility constant Hcp at 293 K: 0.00075
